Experimental system: Histone-lysine N-methyltransferase EHMT2 (Homo sapiens)
Method: qHTS Assay for Inhibitors of Histone Lysine Methyltransferase G9a; further: on the % scale 0 is the no-effect control and ±100 the full control effect; nearly all actives have a fitted effect of over 75% in size
Test parameters: G9a H3K9 monomethylation, AlphaScreen, 2 h; series mostly up to 59 µM
Protocol: Methylated lysines, on the N-terminal tails of histone proteins serve as epigenetic markers to recruit factors that can then modify local chromatin structure to lead to functional consequences. […] Methylation of biotinylated-histone peptide is measured through specific antibody-based detection, in conjunction with streptavidin-coated donor and anti-IgG antibody-coated acceptor beads. […]
The whole screen tested about 350,000 compounds, of which about 31,000 (8.9%) were called active. Not shown: some 15% with an inconclusive outcome. The entries come from a sample that favours actives as a whole.
Experimental readout: activity, negative = inhibition

activity, negative = inhibition lookup needed for `Cc1ccc(S(=O)(=O)N2[C@@H](c3cccc(Cl)c3)C(C(=O)O)=CC[C@H]2c2ccc(Cl)c(Cl)c2)cc1` , thanks.
13.5% [at 2.33 µM] (inactive)

activity, negative = inhibition lookup needed for `Cc1cccc(NC(=S)N2CCC(c3nc4ccccc4s3)CC2)c1` , thanks.
30.9% [at 0.501 µM] (inactive)

activity, negative = inhibition lookup needed for `CCCCn1c(N)c(N(CCOC)C(=O)c2sc3ccccc3c2Cl)c(=O)[nH]c1=O` , thanks.
0.384% [at 0.501 µM] (inactive)

activity, negative = inhibition lookup needed for `OCC[C@H]1C[C@H](O)[C@@H](O)[C@]2(Cc3ccccc3CO2)O1` , thanks.
12.3% [at 2.33 µM] (inactive)

activity, negative = inhibition lookup needed for `CC(=O)c1sc(N)nc1C` , thanks.
-2.73% [at 2.33 µM] (inactive)

activity, negative = inhibition lookup needed for `COc1ccc(NC(=O)Cn2c(-c3ccc(OC)cc3)cn(-c3ccc(C)cc3)c2=O)cc1` , thanks.
-31.1% [at 12.7 µM] (inactive)

activity, negative = inhibition lookup needed for `CN(C)CCCn1c(SCc2ccc(Cl)cc2)nnc1-c1ccncc1` , thanks.
14% [at 0.501 µM] (inactive)

activity, negative = inhibition lookup needed for `Cc1ccc(C)c(C(=O)COC(=O)Cn2[nH]c(=O)c3ccccc3c2=O)c1` , thanks.
11.2% [at 12.7 µM] (inactive)

activity, negative = inhibition lookup needed for Cc1c(C(C)CCCO)oc(=O)c2c1Oc1c(C)c(C(C)C[C@@H](C)O)oc(=O)c1C2 (stereo not given in full) , thanks.
9.9% [at 2.33 µM] (inactive)

activity, negative = inhibition lookup needed for `O=C(c1ccc(Cl)nc1)N1CCN(S(=O)(=O)c2ccc3c(c2)OCCO3)CC1` , thanks.
-21.6% [at 12.7 µM] (inactive)

These measurements were taken from PubChem BioAssay AID504332.
